// data source = patent US12410160B2

Target: human KHK-C (Homo sapiens (Human))
Test: KHK Biochemical Assay (IC50), ADP-Glo, KHK-C
Details: ADP-Glo; average of at least two separate assays
observation type: IC50 (nM)

(a) CC(O)c1cccc(-c2nc(N3CC[C@@H]3C)nc3c2CCC3)c1 (stereo partly shown)
(b) C[C@H]1CCN1c1nc2c(c(-c3ccc4c(c3)CCNC4)n1)CCC2
(c) COC(=O)CCc1cccc(-c2nc(N3CC[C@@H]3C)nc3c2CCC3)c1
(d) C[C@H]1[C@H](O)CN1c1nc(-c2ccc3c(=O)[nH]ccc3c2)c2c(n1)C(F)(F)CC2
Using the recorded IC50, list the entries above from smallest to largest. # the answer lists labels in the order requested d, b, a, c
(d: 1.6 nM, b: 4.6 nM, a: 69.5 nM, c: 689 nM)

* * *

Experiment: pKa analysis by capillary electrophoresis (pKa PRO Analyzer, co-solvent method)
Format: physicochemical
Conditions: methanol/aqueous co-solvent buffers, co-solvent method (60% to 30% methanol buffers), pH range 1.7-11.2, read-out: 1st pKa
observation type: pKa

Here's what some known entries look like.
{"compound": "C[C@H]1CCN1c1nc2c(c(-c3ccc4c(c3)CCNC4)n1)CCC2 [Example 379]", "observation type": "pKa", "value measured": 4.31}
{"compound": "C[C@H]1CCN1c1nc2c(c(-c3ccc(CN)s3)n1)CCC2 [Example 459]", "observation type": "pKa", "value measured": 4.27}

(1) C[C@H]1CCN1c1nc2c(c(-c3ccc4c(O)nc(O)cc4c3)n1)CCC2 [Example 381]
(2) C[C@H]1[C@H](O)CN1c1nc(-c2ccc3c(c2)CCNC3C(F)F)c2c(n1)C(F)(F)CC2 (stereo partly shown) [Example 835]
Sorting ascending by pKa, which comes first: 1 or 2 ? Reply with the label of the item you choose. 1
(1: 4.12, 2: 6)

* * *

Target: human KHK-A (Homo sapiens (Human), UniProt P50053)
Sequence (P50053 other isoform, or with tags, fused parts or gaps): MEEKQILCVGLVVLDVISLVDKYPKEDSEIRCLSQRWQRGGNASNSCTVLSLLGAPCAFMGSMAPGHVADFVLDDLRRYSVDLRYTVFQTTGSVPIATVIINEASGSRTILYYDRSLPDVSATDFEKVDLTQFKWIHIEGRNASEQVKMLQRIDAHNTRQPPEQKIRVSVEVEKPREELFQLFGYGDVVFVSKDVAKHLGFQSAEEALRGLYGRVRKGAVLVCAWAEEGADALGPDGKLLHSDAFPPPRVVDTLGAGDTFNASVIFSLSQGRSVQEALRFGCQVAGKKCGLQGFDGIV
Experiment: KHK Biochemical Assay (IC50), ADP-Glo, KHK-A
Conditions: average of at least two separate assays
observation type: IC50 (nM)

Sample records with IC50:
{"molecule": "C[C@H]1[C@H](O)CN1c1nc(-c2cc3c(s2)CCC3NS(C)(=O)=O)c2c(n1)C(F)(F)CC2 (stereo partly drawn)", "IC50, nM": 11.1}
{"molecule": "C[C@H]1[C@H](O)CN1c1nc(-c2ccc3c(c2)OCC32NC(=O)OC2(C)C)c2c(n1)C(F)(F)CC2 (stereo partly drawn)", "IC50, nM": 32.8}
{"molecule": "CS(=O)(=O)N[C@H]1COc2cc(-c3nc(N4CC[C@@H]4C(F)(F)F)nc4c3CCC4(F)F)ccc21", "IC50, nM": 2.1}
{"molecule": "C[C@H]1[C@H](F)CN1c1nc(-c2ccc3c(c2)COC[C@@H]3NS(C)(=O)=O)c2c(n1)C(F)(F)CC2", "IC50, nM": 7}
{"molecule": "COC(=O)[C@H]1C[C@@]12C(=O)Nc1ccc(-c3nc(N4CC[C@@H]4C)nc4c3CCC4)cc12 (racemic)", "IC50, nM": 235}
{"molecule": "C[C@H]1CCN1c1nc2c(c(-c3cccc(C4CC(C(=O)O)C4)c3)n1)CCC2 (stereo partly drawn)", "IC50, nM": 15.4}
{"molecule": "C[C@H]1[C@@H](F)CN1c1nc(-c2ccc3c(c2)COC[C@@H]3NS(C)(=O)=O)c2c(n1)C(F)(F)CC2", "IC50, nM": 8.7}
{"molecule": "C[C@H]1[C@H](O)CN1c1nc(-c2ccc3c(c2)CC[C@@]32COC(=O)N2)c2c(n1)C(F)(F)CC2 (single isomer, unassigned)", "IC50, nM": 10.9}

(A) C[C@H]1[C@H](O)CN1c1nc(-c2ccc(C3(N)CS(=O)(=O)C3)cc2)c2c(n1)C(F)(F)CC2
(B) C[C@H]1[C@H](O)CN1c1nc(-c2ccc3c(c2)COC[C@]32CCC(=O)N2)c2c(n1)C(F)(F)CC2 (single isomer, unassigned)
Short answer wanted: higher IC50, A or B ? Bench note: the answer is the label of the chosen record. A

(a) O=C1NC(=O)C2(COc3cc(-c4nc(N5CC[C@@H]5C(F)(F)F)nc5c4CCC5(F)F)ccc32)N1 (stereo partly drawn)
(b) C[C@H]1[C@H](O)CN1c1nc(-c2ccc3c(c2)COC[C@H]3NS(C)(=O)=O)c2c(n1)C(F)(F)CC2
I'm curious, which of these has a smaller IC50 number: a or b ? Answer format: the label of the selected item. a
(a: 1 nM, b: 22.5 nM)

(a) C[C@H]1[C@H](O)CN1c1nc(-c2ccc3c(c2)CCC32CCC(=O)N2)c2c(n1)C(F)(F)CC2 (stereo partly drawn)
(b) C[C@H]1[C@H](O)CN1c1nc(-c2ccc3c(c2)S(=O)(=O)CCNC3)c2c(n1)C(F)(F)CC2
Sorting ascending by IC50, which comes first: a or b ? Your answer should be the label of the entry you select. b

* * *

Experiment: pKa analysis by capillary electrophoresis (pKa PRO Analyzer, co-solvent method)
Type: physicochemical
Conditions: methanol/aqueous co-solvent buffers, co-solvent method (60% to 30% methanol buffers), pH range 1.7-11.2, read-out: 1st pKa
observation type: pKa

Known pKa results, listed for orientation:
{"molecule": "C[C@H]1[C@H](O)CN1c1nc(-c2ccc(C3(N)CS(=O)(=O)C3)cc2)c2c(n1)C(F)(F)CC2", "observation type": "pKa", "value measured": 4.5}
{"molecule": "C[C@H]1CCN1c1nc2c(c(-c3ccc4c(N)nccc4c3)n1)CCC2", "observation type": "pKa", "value measured": 3.29}
{"molecule": "C[C@H]1CCN1c1nc2c(c(-c3ccc(C(N)CS(C)(=O)=O)cc3)n1)CCC2 (some centres unmarked)", "observation type": "pKa", "value measured": 4.2}
{"molecule": "C[C@H]1CCN1c1nc2c(c(-c3ccc4cnc(O)cc4c3)n1)CCC2", "observation type": "pKa", "value measured": 4.21}
{"molecule": "C[C@H]1CCN1c1nc2c(c(-c3ccnn3C)n1)CCC2", "observation type": "pKa", "value measured": 4}

(a) C[C@H]1CCN1c1nc2c(c(-c3ccc4c(c3)OCC4N)n1)CCC2 (some centres unmarked)
(b) NC1(c2ccc(-c3nc(N4CC[C@@H]4C(F)(F)F)nc4c3CCC4(F)F)cc2)COC1
Endpoint returns the identifier whose pKa is numerically larger, either a or b . When you have decided, please share the label of that item. b

* * *

Molecular target: human KHK-A (Homo sapiens (Human), UniProt P50053)
Experiment: KHK Biochemical Assay (IC50), ADP-Glo, KHK-A
Settings: ADP-Glo; average of at least two separate assays
observation type: IC50 (nM)

Example cases with answers are listed next.
{"molecule": "CC(O)c1cccc(-c2nc(N3CC[C@@H]3C)nc3c2CCC3)c1 (stereo partly drawn) [Example 276]", "IC50 / nM": 66.6}
{"molecule": "C[C@H]1CCN1c1nc2c(c(-c3cnccn3)n1)CCC2 [Example 344]", "IC50 / nM": 175}

(P) CC1CN(c2nc3c(c(-c4ccc(C(N)=O)cc4)n2)CCC3)C1C (stereo not drawn) [Example 105]
(Q) C[C@H]1[C@H](O)CN1c1nc(-c2ccc([C@]3(N)CCS(=O)(=O)C3)cc2)c2c(n1)C(F)(F)CC2 (single isomer, unassigned) [Example 795]
(R) C[C@H]1CCN1c1nc(-c2ccc3c(=O)[nH]ccc3c2)c2c(n1)C(F)(F)CC2 [Example 317]
(S) C[C@H]1[C@H](O)CN1c1nc2c(c(-c3ccc4c(c3)C(=O)N(C)C4)n1)CCC2 [Example 204]
Sort (4 molecules) by IC50: min first. List each label, following the requested order. R, Q, S, P

(P) COc1cc(S(=N)(=O)c2cc(-c3nc(N4CC[C@@H]4C)nc4c3CCC4)ccc2OC)ccc1C#N (stereo partly drawn) [Example 850]
(Q) C[C@H]1CCN1c1nc(-c2ccccc2)c2occc2n1 [Example 12]
Consider P and Q . Which of these has its IC50 at a higher number? # reply format: chosen label Q

* * *

Molecular target: human KHK-C (Homo sapiens (Human), UniProt P50053)
Sequence (P50053 whole entry): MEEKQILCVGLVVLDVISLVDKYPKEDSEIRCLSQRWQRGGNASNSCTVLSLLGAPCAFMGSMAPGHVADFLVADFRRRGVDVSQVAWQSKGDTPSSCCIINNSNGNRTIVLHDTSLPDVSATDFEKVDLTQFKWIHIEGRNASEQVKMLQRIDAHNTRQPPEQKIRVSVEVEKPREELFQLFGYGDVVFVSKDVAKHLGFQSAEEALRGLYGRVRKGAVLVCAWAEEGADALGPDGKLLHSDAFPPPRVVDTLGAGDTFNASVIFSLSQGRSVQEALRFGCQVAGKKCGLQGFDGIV
Experiment: KHK Biochemical Assay (IC50), ADP-Glo, KHK-C
Details: average of at least two separate assays
observation type: IC50 (nM)

Answered examples (3):
{"molecule": "C[C@@H](NS(C)(=O)=O)c1cccc(-c2nc(N3CC[C@@H]3C)nc3c2CCC3(F)F)c1", "readout unit": "nM", "IC50": 18.8}
{"molecule": "C[C@H]1[C@H](O)CN1c1nc(-c2ccc3c(c2)OC[C@@H]3NS(=O)(=O)c2ccccc2)c2c(n1)C(F)(F)CC2", "readout unit": "nM", "IC50": 26.8}
{"molecule": "C[C@H]1CCN1c1nc2c(c(-c3ccc4c(c3)[C@]3(C[C@H]3C(=O)O)C(=O)N4)n1)CCC2 (racemic)", "readout unit": "nM", "IC50": 100}

(I) C[C@H]1[C@H](O)CN1c1nc(-c2cccc(N=S3(=O)CCNCC3)c2)c2c(n1)C(F)(F)CC2
(II) C[C@H]1[C@H](O)CN1c1nc(-c2ccc3c(c2)CC[C@@]32CCC(=O)N2)c2c(n1)C(F)(F)CC2 (single isomer, unassigned)
(III) C[C@H]1[C@H](O)CN1c1nc(-c2ccc3c(c2)O[C@H](CF)CNC3=O)c2c(n1)C(F)(F)CC2 (single isomer, unassigned)
List by increasing IC50. # list labels per requested ordering III, II, I
